Test system: M14 melanoma
assay: NCI tumour cell line growth inhibition, 48 h; in the data active = GI50 below about 0.43 µM; inactive = the rest
Pick from y (active), n (inactive) when you respond.

These solved cases illustrate the format of a correct answer.
* O=S(=O)(Nc1cc(Cl)ccc1Cl)c1ccc(-c2cnc(C3CC3)o2)cc1 | n
* COc1cc(O)c2c(c1)C(=O)c1cc3c(c(O)c1C2=O)C(OC1OC(C)C(O)C(O)C1OC)C(OC)C(C)(O)C3=O (stereo not drawn) | n
* CCOC(=O)[C@@H](C)C[C@H](Cc1ccccc1)NC(=O)c1csc([C@@H](C[C@H](C(C)C)N(C)C(=O)[C@H](CC)NC(=O)[C@H]2CCCCN2C)OC(C)=O)n1 | y
* OCC1OC(n2cnc3c(Cl)nc(Cl)cc32)C(O)C1O (stereo not drawn) | n
* COC(=O)[C@H](Cc1ccc(O)cc1)NC(=O)[C@@H](OC)[C@@H]1Cc2cc3cc(OC4CC(OC5CC(O)C(O)C(C)O5)C(O)C(C)O4)c(C)c(O)c3c(O)c2C(=O)[C@H]1OC1CC(OC2CC(OC3CC(C)(O)C(O)C(C)O3)C(O)C(C)O2)C(O)C(C)O1 (stereo partly drawn) | y
* O=C(CCC(C(=O)c1ccccc1)c1ccccc1)c1ccccc1 (stereo not drawn) | n
* O=C(NO)c1ccc(Cn2c(=O)n(-c3ccccc3F)c(=O)c3ccccc32)cc1 | n

From here, focus on the item given below.
Dear all, I need the recorded test outcome for COc1cccc2c1c(C1=C(c3cn(C)c4ccccc34)C(=O)NC1=O)cn2C , thank you. n

---

Test system: SN12C renal
assay: NCI tumour cell line growth inhibition, 48 h; in the data active = GI50 below about 0.43 µM; inactive = the rest
Your reply should match one of these outcome classes. 1 (yes) (active), 0 (no) (inactive)

* N#CS.N=C=S.N=C=S.[Cu+2].[NH2-].[NH2-].[NH2-].[NH2-].c1ccc2ncccc2c1 | 0 (no)
* CN1CC(CNC(=O)OCc2ccccc2)CC2c3cccc4c3c(cn4C)CC21 (stereo not drawn) | 0 (no)
* Nc1c(C(=O)c2ccc(CCCN3CCOCC3)cc2)cnn1-c1ccc(F)cc1 | 0 (no)
* CCc1ccc2c(c1)N(CCO)C1=C(C(=O)OC1)C2c1cccc(Cl)c1 (stereo not drawn) | 0 (no)
* COC(=O)[C@H](Cc1ccc(O)cc1)NC(=O)[C@@H](OC)[C@@H]1Cc2cc3cc(OC4CC(OC5CC(O)C(O)C(C)O5)C(O)C(C)O4)c(C)c(O)c3c(O)c2C(=O)[C@H]1OC1CC(OC2CC(OC3CC(C)(O)C(O)C(C)O3)C(O)C(C)O2)C(O)C(C)O1 (stereo partly drawn) | 1 (yes)

In this assay, the call recorded for CN(C)CCCNC(=O)c1cncnc1Nc1ccc(OCc2cccc(F)c2)c(Cl)c1 was what? 0 (no)

Could you check what this test reported for C/C(=C\COc1c2c(cc3c1CCO3)OC1(C=C2)OC(CC/C(C)=C/COc2c3ccoc3cc3oc(=O)ccc23)C(C)(C)O1)CCC(O)C(C)(C)O (stereo not drawn) ? 0 (no)

Which result was noted for this molecule in the test: COc1ccc(CNc2nc3cc(N)cc(N)c3nc2-c2ccccc2)cc1 0 (no)

---

System: OVCAR-3 ovarian
assay: NCI tumour cell line growth inhibition, 48 h
I'd appreciate it if you could supply log10 of TGI values for the items below.
Values reflect log10 of reported TGI (µM).

Some entries whose results are on file:
- CCC[CH2][Sn]1([CH2]CCC)[O]C(=O)c2ccc(C)cc2[O]1: 0.39
- Cc1ccc(-c2nc(N3CCCNCC3)c3oc(-c4ccccc4)nc3n2)cc1: 0.53
- NS(=O)(=O)c1ccc(Nc2c3ccccc3nc3c(C(=O)NCCO)cccc23)cc1: -0.50
- COc1cc(-c2nn(-c3cccc(NC(=O)c4ccc(N5CCOCC5)c(C(F)(F)F)c4)c3)cc2-c2ccncc2)ccc1Cl: 0.08
- CNC(=O)c1cccc2c(Nc3ccc(NS(C)(=O)=O)cc3OC)c3cccc(C)c3nc12: 0.70
- Cc1nc2c(o1)C(=O)c1ccccc1C2=Nc1ccc(N2CCOCC2)cc1: 0.71

Each of the following entries comes with a recorded value; kindly state log10 of TGI for each.
1. CSc1ncnc2c1ncn2C1OC(CO)C(O)OC1O (stereo not drawn)
2. CC/C(=C(/c1ccc(O)cc1)c1ccc(OCCN2CCCCC2)cc1)c1ccc(OC)cc1

1.22
0.63

---

Tested on: SK-OV-3 ovarian
assay: NCI tumour cell line growth inhibition, 48 h
experimental-endpoint: TGI

Before answering, review these 6 worked examples.
• Cc1ccc2c(=O)cc(-c3ccsc3)[nH]c2n1 = 72.6 µM
• Cc1nc2c(o1)C(=O)c1ccccc1C2=Nc1ccc(N2CCOCC2)cc1 = > 100 µM
• O=C(Nc1nc2ccc(F)cc2s1)c1cccnc1Nc1ccc(Cl)cc1 = > 26.5 µM
• NC(N)=NS(=O)(=O)c1ccc(Nc2c3ccccc3nc3c(C(=O)Nc4ccc(S(N)(=O)=O)cc4)ccc(Cl)c23)cc1 = > 100 µM
• COc1cnc2c(c1)C(=O)c1c-2n(CCCNC(C)C)c(=O)c2cc(F)ccc12 = 0.707 µM
• O=S(O)CCCSSc1ccccc1 = > 100 µM

For every record below, what is its TGI?
1. CCCCCCCCCCCCCCCCOP(=O)(O)OP(=O)(O)OCC1OC(n2ccc(N)nc2=O)C(O)C1O (stereo not given)
2. COC1O[C@H]2[C@H]3[C@@H]1[C@@H](OS(=O)(=O)c1ccc(C)cc1)C(=O)N3C[C@H]2O (stereo not given in full)
3. CCOP(=O)(OCC)C(C(=O)OC)C(=O)C(=O)Nc1c(C)cc(Br)cc1C (stereo not given)
4. CC(C)(C)OC(=O)C1CC[C@@H](CC(=O)Oc2ccc([N+](=O)[O-])cc2)N1 (stereo not given in full)

["> 100 µM", "> 100 µM", "> 100 µM", "> 100 µM"]

---

Tested on: EKVX NSCLC
assay: NCI tumour cell line growth inhibition, 48 h
experimental-endpoint: TGI (µM)
Give bare numbers, in µM.

Example entries and their recorded answers appear below.
• CN(C)CCCNC(=O)c1cncnc1Nc1ccc(OCc2cccc(F)c2)c(Cl)c1 = 3.15
• CN(C)CCCCN1c2ccccc2Sc2ccc(C(=O)c3ccccc3)cc21 = 15.9

Now consider a different compound.
Indicate the recorded TGI value for this compound: S=c1nc(Cl)cc2[nH]c(Cl)cn12 7.41

---

Can you tell me TGI for the items I'm about to list?
Tested on: HOP-92 NSCLC
assay: NCI tumour cell line growth inhibition, 48 h

Report TGI for every entry below.
1. O=C(O)[C@@H]1NC[C@H]2C(Br)=NO[C@H]21
2. CN1CCN(CCCCN2c3ccccc3Sc3cc(N=[N+]=[N-])ccc32)CC1
3. C[C@H]1[C@H]2[C@H]3CC[C@@H]4[C@@]5(C)C/C(=C/c6cccnc6)C(=O)C(C)(C)[C@@H]5CC[C@@]4(C)[C@]3(C)CC[C@]23CO[C@]1(C)[C@@H](C(=O)/C=C\c1cccnc1)C3
4. O=S(=O)(Nc1cc(Cl)ccc1Cl)c1ccc(-c2cnc(C3CC3)o2)cc1
5. CCCCCCCCCCCCOC1C(C(CC(=O)N2CCN(c3cccc(C(F)(F)F)c3)CC2)NS(=O)(=O)c2cc(Cl)cc(Cl)c2)OC2OC(C)(C)OC21 (stereo not given)
6. Cc1cc(Oc2ccc3nc(COc4ccc(CC5SC(=O)NC5=O)cc4)n(C)c3c2)cc(C)c1N (stereo not given)
7. O=C(NN=C1CCCCC1)c1[nH]c2ccc(F)cc2c1-c1ccccc1
8. O=C(CCC(C(=O)c1ccccc1)c1ccccc1)c1ccccc1 (stereo not given)

> 100 µM
6.43 µM
3.11 µM
8.42 µM
> 100 µM
> 87.5 µM
> 100 µM
72.2 µM

---

Tested on: SK-MEL-5 melanoma
assay: NCI tumour cell line growth inhibition, 48 h
experimental-endpoint: GI50

Please look at the items below and tell me GI50 for each one, in order.
1. C/C(=C\COc1c2c(cc3c1CCO3)OC1(C=C2)OC(CC/C(C)=C/COc2c3ccoc3cc3oc(=O)ccc23)C(C)(C)O1)CCC(O)C(C)(C)O (stereo not given)
2. CCOC(=O)/C(=C(/C)NCC(C)C)c1cc(O)c(O)c2c(C)cc(=O)[nH]c12
3. C/C(=C(\c1ccc(OCCN2CCCCCC2)cc1)c1ccc(OC(=O)Cc2ccccc2)cc1)c1ccc(Cl)cc1
4. Cc1cn2c(/C=N/N=C(N)N)c(-c3cccnc3)nc2s1
5. C=C(C)[C@@H]1CC[C@]2(CO)CC[C@]3(C)[C@H](CC[C@@H]4[C@@]5(C)CCC(NCCc6ccc(O)cc6)C(C)(C)[C@@H]5CC[C@]43C)[C@@H]12 (stereo not given in full)
6. O=C(CCC(C(=O)c1ccccc1)c1ccccc1)c1ccccc1 (stereo not given)

8850 nM
11100 nM
2360 nM
2680 nM
1470 nM
9290 nM

Provide GI50 for all items below, preserving their order.
1. COc1cc(OC)c(NC(=O)c2cc3ccccc3cc2O)cc1Cl
2. CNC(=O)Oc1cc(C)c(/C=C/c2cncc(C(=O)NC)c2)c(C)c1
3. CCS(=O)(=O)Nc1cccc(Nc2c3cccc(C)c3nc3c(C)cccc23)c1OC

1: 2400 nM; 2: > 22100 nM; 3: 1100 nM

Tell me measured GI50 for O=C1c2ccccc2-c2c1c1c(O)cccc1n2-c1ccccc1 please. > 100000 nM

From: PubChem BioAssay (NCI)
